# Tested on: P. falciparum translation (P. falciparum lysate)
# testName: P. falciparum in vitro translation (PfIVT) assay, lysate-based, luciferase reporter
# Type: biochemical, Plasmodium falciparum
# measurementParameters: single-point screen, 30 μM; Pandemic Box
So basically: PfIVT inhibition at 30 μM (%) at 90% or higher? That is Criterion met. Lower than 90%? That is Criterion not met.

INSERT INTO results (compound, qualitativelabel) VALUES
  ('CC(=O)Oc1ccccc1C(=O)Nc1ncc([N+](=O)[O-])s1 [MMV688991, nitazoxanide, reference compound]', 'Criterion met'),
  ('CC(Cc1ccccc1)C(=O)Nc1ccc(Cl)cc1C(=O)O (centres unmarked) [MMV1579781]', 'Criterion not met'),
  ('Cc1oncc1C(=O)Nc1ccc(C(F)(F)F)cc1 [MMV003291]', 'Criterion not met'),
  ('Cn1cc(NC(=O)c2cc(NC(=O)c3ccc(/C=C/c4cnc5ccccc5c4)cc3)cn2C)cc1C(=O)NCCN1CCOCC1 [MMV1634391]', 'Criterion not met'),
  ('Clc1cccc(-c2nnc(-c3ccccc3)o2)c1 [MMV141011]', 'Criterion not met'),
  ('CCOc1ccc(C(=O)NCCc2ccccc2)cc1 [MMV124656]', 'Criterion not met');

Decide: PfIVT inhibition at 30 μM (%) of Cc1ccc(NC(=O)c2cc(Cl)ccc2O)cc1 [MMV1578897] >= 90%?
Criterion met

Decide: is the reported value of PfIVT inhibition at 30 μM (%) for NC[C@H]1O[C@H](O[C@H]2[C@H](O)[C@@H](O[C@H]3O[C@H](CO)[C@@H](O)[C@H](N)[C@H]3O)[C@H](N)C[C@@H]2N)[C@H](N)C[C@@H]1O [MMV002459] equal to or greater than 90%?
Criterion not met
